# Protocol details: in vitro
# Condition: rat, C6G cells
Threshold check on CC50 at 48 h: strictly below 200 µM is satisfied; on or above 200 µM is not satisfied.

// query State whether 200 µM exceeds CC50 at 48 h recorded for COc1cc(OC)c(C=CC(=O)NCCn2c(C)cc3ccccc32)cc1Br [1y] .
// result not satisfied

// query Would you kindly verify if CC50 at 48 h of COc1cc(C=CC(=O)NCCn2cnc3ccccc32)cc(OC)c1OC [1d] is strictly less than 200 µM?
// result not satisfied

// query Criterion: CC50 at 48 h strictly below 200 µM. Is it met by COc1ccc(/C=C/C(=O)NCCn2c(C)cc3cc(F)ccc32)cc1Cl [1x] ?
// result not satisfied

// query Decide: CC50 at 48 h of COc1cc(C=CC(=O)N(C)CCn2c(C)cc3ccccc32)cc(OC)c1OC [1k] strictly below 200 µM?
// result not satisfied

// query Consider the compound Cc1nc2ccccc2n1CCNC(=O)C=Cc1ccc2c(c1)OCO2 [1c] . Is its CC50 at 48 h strictly less than 200 µM?
// result not satisfied

// query Just wondering, is CC50 at 48 h of COc1ccc(C=CC(=O)NCCn2c(C)cc3cc(F)ccc32)cc1 [1n] below 200 µM?
// result not satisfied

// query Strictly below 200 µM in CC50 at 48 h? Cc1cc2cc(F)ccc2n1CCNC(=O)C=Cc1cc(F)c(F)c(F)c1 [1u]
// result satisfied

// query Criterion: CC50 at 48 h strictly below 200 µM. Is it met by CCOc1ccc(C=CC(=O)NCCn2c(C)cc3ccccc32)cc1OC [1p] ?
// result not satisfied

// query Find out if reported CC50 at 48 h for Cc1cc2ccccc2n1CCNC(=O)C=Cc1ccc(F)c(F)c1 [1r] is less than 200 µM
// result satisfied

// query Strictly below 200 µM: is that where CC50 at 48 h of COc1ccc(/C=C/C(=O)NCCn2c(C)cc3ccccc32)cc1Cl [1w] sits?
// result not satisfied

// query Lab note: confirm whether the reported CC50 at 48 h for this compound is below 200 µM, equality not counting. compound: COc1ccc(C=CC(=O)NCCn2c(C)nc3ccccc32)cc1OC [1b]
// result not satisfied

// query CC50 at 48 h strictly < 200 µM for this compound? COc1ccc(C=CC(=O)NCCn2c(C)cc3cc(F)ccc32)cc1OC [1g]
// result not satisfied

// query # TODO verify CC50 at 48 h < 200 µM strictly for this compound: COc1ccc(C=CC(=O)NCCn2c(C)cc3ccccc32)cc1 [1m]
// result not satisfied

// query Just wondering, is CC50 at 48 h of Cc1cc2ccccc2n1CCNC(=O)C=Cc1cc(F)c(F)c(F)c1 [1t] below 200 µM?
// result satisfied

// query Regarding COc1cc(CCC(=O)NCCn2c(C)cc3ccccc32)cc(OC)c1OC [1l] , kindly confirm whether its CC50 at 48 h is beneath 200 µM.
// result not satisfied

// query Is CC50 at 48 h of COc1cc(C=CC(=O)NCCn2c(C)cc3cc(F)ccc32)cc(OC)c1OC [1f] strictly below 200 µM?
// result satisfied

// query Determine if Cc1cc2cc(F)ccc2n1CCNC(=O)C=Cc1ccc(F)c(F)c1 [1s] shows CC50 at 48 h strictly lower than 200 µM.
// result not satisfied

// query Could you please tell me whether CC50 at 48 h recorded for COc1cc(C=CC(=O)NCCCn2c(C)cc3ccccc32)cc(OC)c1OC [1j] is less than 200 µM?
// result satisfied

// query Dear colleague, could you confirm whether CC50 at 48 h of Cc1cc2ccccc2n1CCNC(=O)C=Cc1ccc2c(c1)OCO2 [1o] falls below 200 µM? Thanks.
// result satisfied
